# Experiment Notes: Plasma pharmacokinetics by LC-MS/MS in OVCAR3 xenograft tumor-bearing nude mice
# Format: in vivo, BALB/c nude mice
# Experimental Conditions: female, BALB/c nude, mouse, plasma, po, 25 mg/kg, monotherapy group; plasma; oral gavage once daily for four weeks; Dorz 10 mg/kg, WX390 0.2 mg/kg, BYL719 25 mg/kg; n = 3; read-out: Cmax
# Procedure: This study, approved by Fudan University Ethics Committee (protocol code: 201904008Z) on 26 April 2019, was conducted in compliance with AAALAC’s International Commission guidelines for laboratory animal evaluation and accreditation. A total of 36 female BALB/c nude mice (6–8 weeks old, weighing 18–20 g) were purchased from Charles River Laboratories (Pinghu, China). The OVCAR3 ovarian cancer cell line (ATCC® HTB-161™) was used to establish human xenografts. […]
Observed Property: Cmax (ng/mL)
Give the value, in units of ng/mL, as a plain number.

# Cmax lookup, item Cc1nc(NC(=O)N2CCC[C@H]2C(N)=O)sc1-c1ccnc(C(C)(C)C(F)(F)F)c1
4790

Entry source: paper PMC12196043
